B1: C10orf62 (parent)
chain: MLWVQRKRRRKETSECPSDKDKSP

Variants of: B1
protocol.details: protein stability index of a GFP-peptide fusion (GPS, HEK-293T) (PSI 1-6); higher = more stable;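 also: lentivirally expressed fusions sorted by FACS into six bins by GFP to DsRed ratio, PSI derived from sequencing read proportions per bin multiplied by bin number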
condition.label: c terminus: a fixed tail appended
Answer each item with its documented protein stability index.
Answer with the value's number alone.

q: Form field: reported protein stability index of P24V
a: 2.95

q: Please do the same for K22S as well.
a: 3.18

q: Let us now turn to K22A
a: 4.4

q: Field entry: K11G
a: 2.9

q: // same read-out, input: K11F
a: 2.73

q: Likewise for T13G ?
a: 2.15

q: Next variant up: S18Q
a: 3.42

q: Now the variant S14N
a: 3.14

q: Same read-out for S23F ?
a: 2.5

q: How about this variant: K7P
a: 3.97

q: // same read-out, input: W3I
a: 3.25

q: What do you have for E15D ?
a: 3.26

q: Okay, and T13P ?
a: 3.04

q: Thanks! And S18N ?
a: 2.83

q: Again, but for R9K
a: 2.73

q: Try E15L next.
a: 2.84

q: Follow-up item: S23R
a: 2.88
